# System: B6C3F1 mice, Lewis lung carcinoma iv, survival T/C
# run-description: NCI In Vivo Anticancer Drug Screen. Data for tumor model Lewis Lung Carcinoma (intravenous) in B6C3F1 mice
# assay-setup: endpoint: median survival time; dose: 0.39 mg/kg/injection; schedule: Q01DX009 (ip); vehicle: saline; higher = longer survival
Inconclusive results and toxic doses are left out.
Exercise: state measured T/C for each of the molecules provided.

# molecule OCCN1CCN(CC/C=C2/c3ccccc3Sc3ccc(C(F)(F)F)cc32)CC1 ; its T/C = 101 % of control

Reported T/C of COc1cc2c(c(OC)c1OC)-c1ccc(OC)c(=O)cc1[C@@H](NC(C)=O)CC2 : 104 % of control

The molecule listed as O=CC(O)C(O)C(O)C(O)C(=O)O.[NH-]C1CCCCC1[NH-].[Pt+2] (centres undefined) has a reported T/C of 94 % of control

Sure, the documented T/C for C[CH2][Sn]([CH2]C)([O]S(C)(=O)=O)[O]S(C)(=O)=O is 99 % of control

* * *

# System: B6C3F1 mice, Lewis lung carcinoma iv, survival T/C
# run-description: NCI In Vivo Anticancer Drug Screen. Data for tumor model Lewis Lung Carcinoma (intravenous) in B6C3F1 mice
# assay-setup: endpoint: median survival time; dose: 1.0 mg/kg/injection; schedule: Q01DX009 (ip); vehicle: saline; higher = longer survival
Inconclusive results and toxic doses are left out.
value-kind: T/C

Known value: B6C3F1 mice, Lewis lung carcinoma iv, survival T/C T/C of the molecule Nc1ccn(C2OC(CO)C(O)C2O)c(=O)n1 (stereo unspecified) equals 98 % of control

Measured on B6C3F1 mice, Lewis lung carcinoma iv, survival T/C, Cc1c(N)nc(C(CC(N)=O)NCC(N)C(N)=O)nc1C(=O)NC(C(=O)NC(C)C(O)CC(=O)NC(C(=O)NC(OC1OC(C)C(N)C(O)C1O)C(O)c1nc(-c2nc(C(=O)NCCCC(N)CC(=O)NCCCNCCCCN)cs2)cs1)C(C)O)C(OC1OC(CO)C(O)C(O)C1OC1OC(CO)C(O)C(OC(N)=O)C1O)c1cnc[nH]1 (stereo unspecified) has a documented T/C of 124 % of control

Entry COc1cccc2c1C(=N)c1c(O)c3c(c(O)c1C2=O)C[C@@](O)(C(C)=O)C[C@@H]3OC1CC(N)C(O)C(C)O1 (stereo partly specified) , tested on B6C3F1 mice, Lewis lung carcinoma iv, survival T/C, has a reported T/C of 103 % of control

Field T/C (B6C3F1 mice, Lewis lung carcinoma iv, survival T/C), entry N[C@@H](Cc1ccc(N(CCCl)CCCl)cc1)C(=O)O : 95 % of control

Field T/C (B6C3F1 mice, Lewis lung carcinoma iv, survival T/C), entry CC1=C(C)C(=O)O[C@@H]([C@](C)(O)[C@]2(O)CC[C@@]3(O)[C@@H]4C[C@H]5O[C@]56[C@@H](O)C=CC(=O)[C@]6(C)[C@H]4CC[C@]23C)C1 : 97 % of control

T/C on B6C3F1 mice, Lewis lung carcinoma iv, survival T/C for COc1cccc2c1C(=O)c1c(O)c3c(c(O)c1C2=O)C[C@@](O)(C(C)=O)C[C@@H]3OC1CC(N)C(O)C(C)O1 (stereo partly specified) is 112 % of control

Lab note: molecule O=C1C(NCCO)=C(N2CC2)C(=O)C(NCCO)=C1N1CC1 tested on B6C3F1 mice, Lewis lung carcinoma iv, survival T/C; recorded T/C was 106 % of control

// molecule CNC(=O)O/N=C(\CN=[N+]=[N-])C(C)(C)C , assay B6C3F1 mice, Lewis lung carcinoma iv, survival T/C, T/C value: 105 % of control

With B6C3F1 mice, Lewis lung carcinoma iv, survival T/C as the test system, CO[C@@]12[C@H](COC(N)=O)C3=C(C(=O)C(C)=C(N)C3=O)N1C[C@@H]1N[C@@H]12 showed T/C of 107 % of control

For the molecule COc1cc2c(c(OC)c1OC)-c1ccc(OC)c(=O)cc1[C@@H](NC(C)=O)CC2 , the measured T/C on B6C3F1 mice, Lewis lung carcinoma iv, survival T/C was 100 % of control

T/C of CCCCCCCC(=O)OCC(=O)[C@]1(O)Cc2c(O)c3c(c(O)c2[C@@H](OC2CC(N)C(O)C(C)O2)C1)C(=O)c1c(OC)cccc1C3=O (stereo partly specified) , assay on B6C3F1 mice, Lewis lung carcinoma iv, survival T/C, is 102 % of control

* * *

# Tested on: B6C3F1 mice, Lewis lung carcinoma iv, survival T/C
# run-description: NCI In Vivo Anticancer Drug Screen. Data for tumor model Lewis Lung Carcinoma (intravenous) in B6C3F1 mice
# assay-setup: endpoint: median survival time; dose: 200.0 mg/kg/injection; schedule: Q01DX009 (ip); vehicle: saline with Tween-80; higher = longer survival
Inconclusive results and toxic doses are left out.
Give T/C for every item shown.

T/C measured on NC(=S)N/N=C/c1ccc(OC(=O)COc2ccc(Cl)cc2)cn1 = 116 % of control

Measured T/C of N=c1c(C(=O)OCc2ccccc2)ncc(CCl)n1O : 92 % of control

T/C recorded for this molecule, c1nc(N2CC2)c2cnn(C3CCCCO3)c2n1 (stereo unspecified) , is 112 % of control

The recorded T/C for entry CC(=O)ON(C(C)=O)c1ccc(C(N)=O)cc1 equals 99 % of control

Looking up CC(=O)OCC1(C)NC(=O)c2ccccc2O1 (stereo unspecified) , I see its T/C listed as 114 % of control

For CC[C@H](CC[C@@H](C)C1CC[C@H]2[C@@H]3CC=C4C[C@@H](OP(=O)(N5CC5)N5CC5)CC[C@]4(C)[C@H]3CC[C@]12C)C(C)C (stereo partly specified) the molecule record lists T/C as 95 % of control

Looking up CCSC(=O)N1c2ccc(OC)cc2C=CC1C#N (stereo unspecified) , I found its T/C recorded as 110 % of control

Consider NC(=O)CC(N)C(=O)O (stereo unspecified) . Its measured T/C is 96 % of control

Lookup result for CCC(=O)Sc1ccccc1C(=O)Nc1ccc(Cl)cc1 ; measured T/C: 89 % of control

response.value for C[C@]12CC[C@H](O)CC1=CC[C@@H]1[C@@H]2CC[C@]2(C)C(=O)CC[C@@H]12 (field: T/C) = 94 % of control

GET /value?item= CN(C)c1nc(N(C)C)nc(N(C)C)n1 &field=T/C returns 111 % of control

* * *

# Test system: B6C3F1 mice, Lewis lung carcinoma iv, survival T/C
# run-description: NCI In Vivo Anticancer Drug Screen. Data for tumor model Lewis Lung Carcinoma (intravenous) in B6C3F1 mice
# assay-setup: endpoint: median survival time; dose: 1.56 mg/kg/injection; schedule: Q01DX009 (ip); vehicle: saline; higher = longer survival
Toxic doses and inconclusive results are not listed.
value-kind: T/C

Reported T/C ( COc1ccc(C(=O)C(CN(C)C)CN(C)C)cc1 ) = 96 % of control

Value of T/C reported for the molecule Cc1c2cc[n+](CCN3CCCCC3)cc2c(C)c2c1[nH]c1ccc(O)cc12 is 94 % of control

Please fill in: T/C reported for NC(=O)c1csc(C2OC(CO)C(O)C2O)n1 (centres undefined) = 109 % of control

Reported T/C of ClCCCN1CCCCC1CCl (centres undefined) : 108 % of control

get_value(item= O=CC(O)C(O)C(O)C(O)C(=O)O.[NH-]C1CCCCC1[NH-].[Pt+2] (centres undefined) , readout=T/C) returns 106 % of control

Reported T/C ( O=C1C(O)=C(c2ccccc2)C(=O)C(O)=C1c1ccccc1 ) = 98 % of control

The molecule identified as COc1cccc2c1C(=O)c1c(O)c3c(c(O)c1C2=O)CC(O)(C(=O)CO)CC3OC1CC(N)C(O)C(C)O1 (centres undefined) registered its T/C at 110 % of control

Recorded T/C (molecule OCCN1CCN(CC/C=C2/c3ccccc3Sc3ccc(C(F)(F)F)cc32)CC1 ): 98 % of control

T/C recorded for this molecule, COC(=O)Nc1nc2ccc(C3(c4ccc(F)cc4)OCCO3)cc2[nH]1 , is 97 % of control

molecule COC(=O)[C@@H]1c2cc3c(c(O)c2[C@@H](OC)C[C@@]1(C)O)C(=O)c1c(O)cc2c(c1C3=O)OC1O[C@@]2(C)[C@H](O)[C@@H](N(C)C)[C@@H]1O , T/C observed: 99 % of control

Note to self: T/C recorded for CCN(CC)CC[n+]1ccc2c(C)c3[nH]c4ccc(O)cc4c3c(C)c2c1 was 95 % of control

molecule N=C(N)CCCCCCCCC(=N)N , T/C observed: 119 % of control

Record OCCN1CCN(CC/C=C2/c3ccccc3Sc3ccc(Cl)cc32)CC1 . Reported T/C: 99 % of control

GET /value?item= Brc1c(NC2=NCCN2)ccc2nccnc12 &field=T/C returns 103 % of control
